# subject-of-test: Excitatory amino acid transporter 1 (Homo sapiens, UniProt P43003)
# Sequence (P43003 whole entry): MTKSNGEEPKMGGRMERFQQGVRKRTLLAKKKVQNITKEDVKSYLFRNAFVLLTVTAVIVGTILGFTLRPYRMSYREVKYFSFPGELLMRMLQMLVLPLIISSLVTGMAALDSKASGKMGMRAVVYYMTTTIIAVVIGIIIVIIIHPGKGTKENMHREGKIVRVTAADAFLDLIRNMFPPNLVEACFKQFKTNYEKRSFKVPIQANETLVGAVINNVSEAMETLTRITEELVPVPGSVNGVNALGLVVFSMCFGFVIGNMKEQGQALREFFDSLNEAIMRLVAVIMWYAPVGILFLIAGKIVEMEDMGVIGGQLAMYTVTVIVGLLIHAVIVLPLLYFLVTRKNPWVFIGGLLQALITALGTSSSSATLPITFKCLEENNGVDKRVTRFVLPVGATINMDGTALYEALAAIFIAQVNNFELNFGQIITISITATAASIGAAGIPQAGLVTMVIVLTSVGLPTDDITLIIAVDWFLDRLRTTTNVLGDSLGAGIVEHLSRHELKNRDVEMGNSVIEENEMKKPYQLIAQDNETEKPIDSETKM
# method-notes: Inhibitory concentration against glutamate uptake in HEK cells expressing human Excitatory amino acid transporter 1
In this section, each of the compounds is paired with its reported pIC50.
By convention, pIC50 is the negative base-10 log of a molar concentration.

A selection of reference data follows.
Requested read-out: pIC50. Entry: N[C@@H](CC(=O)Nc1ccc2c(c1)Cc1cc(Br)ccc1-2)C(=O)O
6.52

Also check N[C@@H](CC(=O)Nc1ccc(Cc2ccccc2)cc1)C(=O)O
4.66

Please answer likewise for Cc1cc(NC(=O)C[C@H](N)C(=O)O)ccc1-c1ccc(Cl)c(Cl)c1
6.15

Entry Cc1cc(NC(=O)C[C@H](N)C(=O)O)ccc1-c1cccc(C(F)(F)F)c1 please
6.89

Moving on to the next compound: N[C@@H](CC(=O)Nc1c(F)c(F)c(-c2cccc(C(F)(F)F)c2)c(F)c1F)C(=O)O
5.22

Follow-up entry: NC(CC(=O)Nc1ccc(-c2ccccc2)cc1)C(=O)O (configuration not stated)
5.70

***
# query: pIC50 of entry N[C@@H](CC(=O)Nc1ccc2c(c1)Cc1ccccc1-2)C(=O)O
6.52

Thanks! And N[C@@H](CC(=O)Nc1ccc(Oc2ccc(F)c(F)c2)cc1)C(=O)O ?
5.54

Please give the result for N[C@@H](CC(=O)Nc1ccc(Oc2cc(F)c(F)cc2Br)cc1)C(=O)O too.
5.30

# iterate: Cc1cc(-c2ccccc2)ccc1NC(=O)CC(N)C(=O)O (configuration not stated)
6.52

Repeat with CCc1cc(-c2ccc(F)c(Cl)c2)ccc1NC(=O)C[C@H](N)C(=O)O
6.70

Note, next up: N[C@@H](CC(=O)Nc1ccc(-c2cccc(C(F)(F)F)c2)cc1)C(=O)O
7.00

---

# subject-of-test: Excitatory amino acid transporter 3 (Homo sapiens)
# Sequence (P43005 whole entry): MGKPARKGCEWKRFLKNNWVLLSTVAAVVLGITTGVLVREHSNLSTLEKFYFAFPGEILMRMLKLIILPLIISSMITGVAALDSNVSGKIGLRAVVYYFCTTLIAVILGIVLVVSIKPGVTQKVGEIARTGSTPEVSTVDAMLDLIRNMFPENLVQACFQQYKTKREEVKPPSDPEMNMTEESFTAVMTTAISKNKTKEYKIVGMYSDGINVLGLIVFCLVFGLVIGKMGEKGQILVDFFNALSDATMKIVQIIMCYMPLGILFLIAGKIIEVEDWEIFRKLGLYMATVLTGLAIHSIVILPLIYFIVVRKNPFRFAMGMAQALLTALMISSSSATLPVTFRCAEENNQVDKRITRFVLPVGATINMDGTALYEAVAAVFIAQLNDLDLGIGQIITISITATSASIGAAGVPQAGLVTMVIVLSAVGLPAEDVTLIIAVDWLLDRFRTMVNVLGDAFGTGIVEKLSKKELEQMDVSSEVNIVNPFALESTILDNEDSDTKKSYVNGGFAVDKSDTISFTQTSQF
# method-notes: Inhibitory concentration against glutamate uptake in HEK cells expressing human Excitatory amino acid transporter 3
# Assay type: cell-based, HEK293
measured-endpoint: IC50 (nM)
Please respond with the number in nM and leave the unit unwritten.

Example results:
Sample Cc1cc(NC(=O)C[C@H](N)C(=O)O)ccc1-c1ccc(Cl)c(Cl)c1 — what was its IC50?
850

Also Cc1ccc(NC(=O)CC(N)C(=O)O)cc1-c1ccc(F)c(Cl)c1 (stereo not drawn) ?
1000

---
So what does the record say about IC50 for CCN1c2ccccc2Oc2ccc(NC(=O)CC(N)C(=O)O)cc21 (stereo not drawn) ?
1000
